system: c-Src; assay: phosphorylation enrichment, bacterial display (enrichment ratio); higher = better substrate or ligand; peptides without Tyr show the background
Response key: y means phosphorylation enrichment >= 0.5; n means phosphorylation enrichment < 0.5.

>>> answer_label("QEGPEYWDLET [HLA-A_Y83_Q86L]")
"y"
>>> answer_label("IKEFKYGIEEH [GJA1_Y137_K134E]")
"n"
>>> answer_label("TIQIMFGCDVG [HLA-A_Y123_Y123F]")
"y"
>>> answer_label("LLKKIYLMLDN [STAT1_Y203_M202I]")
"y"
>>> answer_label("AKKIKYFEGVS [PRKDC_Y682]")
"n"
>>> answer_label("RRSKMYLKTRS [LPL_Y329_S325R]")
"y"
>>> answer_label("DRLASDLDKVR [KRT10_Y160_Y160D]")
"n"
>>> answer_label("VFLGAYDRFLP [SLC22A5_Y486_YF]")
"y"
>>> answer_label("AEKPKYQISNI [TJP1_Y1602_N1605S]")
"n"
>>> answer_label("QEGPEYWDGET [HLA-A_Y83_Q86G]")
"y"
>>> answer_label("KNKLNYTLPQD [NRAP_Y523]")
"n"
>>> answer_label("AEPDIYQEKLS [USP54_Y1233]")
"y"
>>> answer_label("DPHQQYFIAMD [TBX15_Y159_YF]")
"y"
>>> answer_label("RYVTRYIYNRE [HLA-DQB1_Y62]")
"y"

----------
target: Grb2 SH2 (UniProt P62993); test: SH2 binding enrichment of the phosphorylated peptide, bacterial display (enrichment ratio); higher = better substrate or ligand; peptides without Tyr show the background
Sequence (P62993 whole entry, looked up): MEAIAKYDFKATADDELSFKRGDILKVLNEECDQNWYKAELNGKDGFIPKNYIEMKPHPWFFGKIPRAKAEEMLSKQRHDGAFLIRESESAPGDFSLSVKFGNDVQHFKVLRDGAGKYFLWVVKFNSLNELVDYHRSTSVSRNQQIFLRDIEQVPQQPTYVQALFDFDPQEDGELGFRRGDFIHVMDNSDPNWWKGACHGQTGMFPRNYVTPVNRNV
readout.label: SH2 binding enrichment

>>> test_result("KDIENHIQDGK [RAD50_Y964_Y964H]")
0.682
>>> test_result("LKGIRYLTSGL [PIGA_Y82_R77L]")
1.32
>>> test_result("FLRTGYSVPFG [TGM1_Y370_YF]")
0.885
>>> test_result("PELIDYGKLRK [ACTN1_Y193]")
0.581
>>> test_result("SVVVHYEPPEV [TP53_Y220_P219H]")
0.849
>>> test_result("LRGVIYVILRK [PMP22_Y153_S149R]")
0.893
>>> test_result("QQLVAYFSKHT [SRC_Y232_A237T_YF]")
1.01

----------
target: Fyn (UniProt P06241); assay: phosphorylation enrichment, bacterial display (enrichment ratio); higher = better substrate or ligand; peptides without Tyr show the background
Sequence (P06241 whole entry, looked up): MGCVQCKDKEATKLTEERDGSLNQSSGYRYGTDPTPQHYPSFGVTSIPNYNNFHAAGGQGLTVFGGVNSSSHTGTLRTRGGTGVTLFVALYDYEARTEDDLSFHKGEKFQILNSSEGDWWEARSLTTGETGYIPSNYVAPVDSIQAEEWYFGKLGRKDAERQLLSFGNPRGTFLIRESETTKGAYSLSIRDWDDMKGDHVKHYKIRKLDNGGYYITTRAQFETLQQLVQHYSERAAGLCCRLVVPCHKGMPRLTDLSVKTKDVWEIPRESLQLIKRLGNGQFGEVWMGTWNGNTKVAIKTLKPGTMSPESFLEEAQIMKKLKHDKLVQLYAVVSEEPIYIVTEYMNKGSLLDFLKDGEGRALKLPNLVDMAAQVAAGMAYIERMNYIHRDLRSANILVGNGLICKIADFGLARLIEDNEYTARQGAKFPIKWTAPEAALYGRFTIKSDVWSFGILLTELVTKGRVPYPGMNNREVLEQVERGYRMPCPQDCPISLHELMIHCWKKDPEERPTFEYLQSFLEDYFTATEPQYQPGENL
Response key: T means phosphorylation enrichment >= 0.5; F means phosphorylation enrichment < 0.5.

>>> answer_label("SEASFYKSLNL [NGEF_Y289_YF]")
"F"
>>> answer_label("RTLIRYAKLGN [BEST1_Y131_N133K]")
"T"
>>> answer_label("NTCNRYCRDEI [ITGB3_Y660]")
"F"
>>> answer_label("GSQERYFELVE [TSC2_Y407]")
"F"
>>> answer_label("ESDFTYSSSFE [SRPK2_Y427_YF]")
"T"
>>> answer_label("WRVIGYHVVVW [ATP13A2_Y50]")
"F"
>>> answer_label("NSRFTYKLEVK [USH2A_Y3747_YF]")
"F"
>>> answer_label("SSMIDYNLLEK [MYOC_Y479_P481L]")
"F"
>>> answer_label("KEDSAYGSQSV [NFKB2_Y868]")
"T"
>>> answer_label("PELIDYGKLRK [ACTN1_Y193]")
"T"
>>> answer_label("LLFRVYGLESL [INSR_Y94]")
"T"
>>> answer_label("DSGKLYALDGL [INO80_Y1104_V1108G]")
"T"
>>> answer_label("FLKDVYVDSKD [NDUFAF4_Y69]")
"F"
>>> answer_label("TTGGFYSYGGG [KRT24_Y120_A115T]")
"T"

meta.source: the supplement of paper PMC10065799
